System: forty-four human cancer cell lines
Assay Remarks: Cell proliferation assay (ATPlite, 72 hours) in the 44 cell line Oncolines panel
Format: cell-based
Conditions: cell line SHP-77; read-out: cell panel IC50, SHP-77
pIC50: −log10 of the molar value.
Observable: pIC50

Query block: Look up and report measured pIC50 for this entry: N.N.[Cl][Pt][Cl] [cisplatin]
Result block: < 4.50

====

Entries and their %-inhibition of EPHA8 values follow.
Tested System: panel of more than 300 wild-type and mutant kinases (313 kinase panel) (Homo sapiens, UniProt P29322)
Assay Remarks: Kinase profiling in a biochemical assay panel (mobility shift assays and ELISA), %-inhibition at 1 μM; selectivity entropy
Conditions: kinase EPHA8; compound at 1 μM
Answer with a number only, understood to be in %.

Molecule: Cc1ccc(C(=O)Nc2ccc(CN3CCN(C)CC3)c(C(F)(F)F)c2)cc1C#Cc1cnc2cccnn12
%-inhibition of EPHA8, %: 100
//
Molecule: COc1cc(Nc2c(C#N)cnc3cc(OCCCN4CCN(C)CC4)c(OC)cc23)c(Cl)cc1Cl
%-inhibition of EPHA8, %: 99
//
Molecule: CC(=O)Nc1cccc(-n2c(=O)n(C3CC3)c(=O)c3c(Nc4ccc(I)cc4F)n(C)c(=O)c(C)c32)c1
%-inhibition of EPHA8, %: -8

Query block: Output %-inhibition of EPHA8 of COc1cc2nccc(Oc3ccc(NC(=O)C4(C(=O)Nc5ccc(F)cc5)CC4)cc3)c2cc1OC [cabozantinib]
Result block: 98

Query block: Please supply the value of reported %-inhibition of EPHA8 for the item CNC(=O)c1cc(Oc2ccc(NC(=O)Nc3ccc(Cl)c(C(F)(F)F)c3)c(F)c2)ccn1
Result block: 95

Query block: Give reported %-inhibition of EPHA8 value for CO[C@H]1C[C@@H]2CC[C@@H](C)[C@@](O)(O2)C(=O)C(=O)N2CCCC[C@H]2C(=O)O[C@H]([C@H](C)C[C@@H]2CC[C@@H](OC(=O)C(C)(CO)CO)[C@H](OC)C2)CC(=O)[C@H](C)/C=C(\C)[C@@H](O)[C@@H](OC)C(=O)[C@H](C)C[C@H](C)/C=C/C=C/C=C/1C
Result block: -6.55

Query block: Please look at this molecule and report its %-inhibition of EPHA8: CCCS(=O)(=O)Nc1ccc(F)c(C(=O)c2c[nH]c3ncc(-c4ccc(Cl)cc4)cc23)c1F
Result block: 7

Query block: Output %-inhibition of EPHA8 of COc1cc2c(Nc3ccc(Br)cc3F)ncnc2cc1OCC1CCN(C)CC1
Result block: 98

Query block: Supply measured %-inhibition of EPHA8 of Cc1ccc(Nc2nccc(N(C)c3ccc4c(C)n(C)nc4c3)n2)cc1S(N)(=O)=O in your reply.
Result block: 43

Query block: Fill in reported %-inhibition of EPHA8 for this entry: O=S(=O)(c1cccc2cnccc12)N1CCCNCC1
Result block: -10

Query block: Answer with the recorded %-inhibition of EPHA8 of C[C@@H](Oc1cc(-c2cnn(C3CCNCC3)c2)cnc1N)c1c(Cl)ccc(F)c1Cl only.
Result block: 82

Query block: Answer with the recorded %-inhibition of EPHA8 for the molecule listed here: CO[C@H]1C[C@@H]2CC[C@@H](C)[C@@](O)(O2)C(=O)C(=O)N2CCCC[C@H]2C(=O)O[C@H]([C@H](C)C[C@@H]2CC[C@@H](OCCO)[C@H](OC)C2)CC(=O)[C@H](C)/C=C(\C)[C@@H](O)[C@@H](OC)C(=O)[C@H](C)C[C@H](C)/C=C/C=C/C=C/1C
Result block: -3.63

Query block: Please supply the value of reported %-inhibition of EPHA8 for the item N#CC[C@H](C1CCCC1)n1cc(-c2ncnc3[nH]ccc23)cn1
Result block: 0.379

Query block: Answer with the recorded %-inhibition of EPHA8 of CC(C)(C)c1nc(-c2cccc(NS(=O)(=O)c3c(F)cccc3F)c2F)c(-c2ccnc(N)n2)s1 only.
Result block: 35

Query block: Input Cc1cn(-c2cc(NC(=O)c3ccc(C)c(Nc4nccc(-c5cccnc5)n4)c3)cc(C(F)(F)F)c2)cn1 , output reported %-inhibition of EPHA8.
Result block: 98

====

Tested System: panel of more than 300 wild-type and mutant kinases (313 kinase panel) (Homo sapiens, UniProt P42680)
Sequence (P42680 1-631): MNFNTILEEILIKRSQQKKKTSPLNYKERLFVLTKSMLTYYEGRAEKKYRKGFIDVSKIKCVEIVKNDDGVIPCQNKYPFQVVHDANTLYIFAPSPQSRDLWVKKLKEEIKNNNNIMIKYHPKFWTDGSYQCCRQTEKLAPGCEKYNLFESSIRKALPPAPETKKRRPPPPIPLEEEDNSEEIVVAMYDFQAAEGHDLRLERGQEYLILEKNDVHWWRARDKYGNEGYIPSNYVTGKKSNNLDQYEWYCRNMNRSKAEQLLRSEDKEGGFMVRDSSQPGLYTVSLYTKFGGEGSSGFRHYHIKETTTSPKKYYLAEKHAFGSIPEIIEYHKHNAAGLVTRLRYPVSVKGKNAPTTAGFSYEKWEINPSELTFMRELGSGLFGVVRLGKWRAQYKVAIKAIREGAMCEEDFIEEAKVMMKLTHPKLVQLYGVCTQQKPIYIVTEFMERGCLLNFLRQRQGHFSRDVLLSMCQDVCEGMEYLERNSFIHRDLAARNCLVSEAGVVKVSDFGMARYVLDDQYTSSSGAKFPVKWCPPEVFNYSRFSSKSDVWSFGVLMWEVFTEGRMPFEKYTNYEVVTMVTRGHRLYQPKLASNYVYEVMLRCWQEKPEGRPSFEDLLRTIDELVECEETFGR
Assay Remarks: Kinase profiling in a biochemical assay panel (mobility shift assays and ELISA), %-inhibition at 1 μM; selectivity entropy
Conditions: kinase TEC; 1 μM
Observable: %-inhibition of TEC (%)
Provide only the numeric value, understood in %.

Consider the following illustrative entries.
Molecule: COc1cc(Nc2c(C#N)cnc3cc(OCCCN4CCN(C)CC4)c(OC)cc23)c(Cl)cc1Cl
%-inhibition of TEC, %: 58
--
Molecule: COc1cc2c(Nc3ccc(Br)cc3F)ncnc2cc1OCC1CCN(C)CC1
%-inhibition of TEC, %: 15
--
Molecule: CO[C@H]1C[C@@H]2CC[C@@H](C)[C@@](O)(O2)C(=O)C(=O)N2CCCC[C@H]2C(=O)O[C@H]([C@H](C)C[C@@H]2CC[C@@H](OC(=O)C(C)(CO)CO)[C@H](OC)C2)CC(=O)[C@H](C)/C=C(\C)[C@@H](O)[C@@H](OC)C(=O)[C@H](C)C[C@H](C)/C=C/C=C/C=C/1C
%-inhibition of TEC, %: -9
--
Molecule: Cc1ccc(C(=O)Nc2ccc(CN3CCN(C)CC3)c(C(F)(F)F)c2)cc1C#Cc1cnc2cccnn12
%-inhibition of TEC, %: 79
--
Molecule: Cc1cn(-c2cc(NC(=O)c3ccc(C)c(Nc4nccc(-c5cccnc5)n4)c3)cc(C(F)(F)F)c2)cn1
%-inhibition of TEC, %: -0.144
--
Molecule: CS(=O)(=O)CCNCc1ccc(-c2ccc3ncnc(Nc4ccc(OCc5cccc(F)c5)c(Cl)c4)c3c2)o1
%-inhibition of TEC, %: 0

Query block: Return the recorded %-inhibition of TEC value; entry: CC(C)(C)c1nc(-c2cccc(NS(=O)(=O)c3c(F)cccc3F)c2F)c(-c2ccnc(N)n2)s1
Result block: 38

Query block: Using the record for COc1cc2nccc(Oc3ccc(NC(=O)C4(C(=O)Nc5ccc(F)cc5)CC4)cc3)c2cc1OC [cabozantinib] , state its measured %-inhibition of TEC.
Result block: 43

Query block: Give reported %-inhibition of TEC value for CCCS(=O)(=O)Nc1ccc(F)c(C(=O)c2c[nH]c3ncc(-c4ccc(Cl)cc4)cc23)c1F
Result block: -0.191

Query block: Dear colleague, please send me the reported %-inhibition of TEC for CC(=O)Nc1cccc(-n2c(=O)n(C3CC3)c(=O)c3c(Nc4ccc(I)cc4F)n(C)c(=O)c(C)c32)c1 when you can.
Result block: -7.53

Query block: Please give the documented %-inhibition of TEC of N#CC[C@H](C1CCCC1)n1cc(-c2ncnc3[nH]ccc23)cn1
Result block: 18

====

Tested System: panel of more than 300 wild-type and mutant kinases (313 kinase panel) (Homo sapiens)
Assay Remarks: Kinase profiling in a biochemical assay panel (mobility shift assays and ELISA), %-inhibition at 1 μM; selectivity entropy
Conditions: kinase PAK4; 1 μM
Listed below: %-inhibition of PAK4 values for each entry.
Return type: number; implicit unit %.

Structure Notation: CNC(=O)c1cc(Oc2ccc(NC(=O)Nc3ccc(Cl)c(C(F)(F)F)c3)c(F)c2)ccn1
Observable: %-inhibition of PAK4
Recorded Value: -15

Structure Notation: CC(=O)Nc1cccc(-n2c(=O)n(C3CC3)c(=O)c3c(Nc4ccc(I)cc4F)n(C)c(=O)c(C)c32)c1
Observable: %-inhibition of PAK4
Recorded Value: -0.675

Structure Notation: COc1cc2c(Nc3ccc(Br)cc3F)ncnc2cc1OCC1CCN(C)CC1
Observable: %-inhibition of PAK4
Recorded Value: -11

Structure Notation: CO[C@H]1C[C@@H]2CC[C@@H](C)[C@@](O)(O2)C(=O)C(=O)N2CCCC[C@H]2C(=O)O[C@H]([C@H](C)C[C@@H]2CC[C@@H](OCCO)[C@H](OC)C2)CC(=O)[C@H](C)/C=C(\C)[C@@H](O)[C@@H](OC)C(=O)[C@H](C)C[C@H](C)/C=C/C=C/C=C/1C
Observable: %-inhibition of PAK4
Recorded Value: -4

Structure Notation: CCCS(=O)(=O)Nc1ccc(F)c(C(=O)c2c[nH]c3ncc(-c4ccc(Cl)cc4)cc23)c1F
Observable: %-inhibition of PAK4
Recorded Value: -7

Now take the following compound into account.
Query block: Report %-inhibition of PAK4 on panel of more than 300 wild-type and mutant kinases (313 kinase panel) (Homo sapiens) for this entry: CC(C)(C)c1nc(-c2cccc(NS(=O)(=O)c3c(F)cccc3F)c2F)c(-c2ccnc(N)n2)s1
Result block: 11
